Target: Rho-associated protein kinase 2 (Homo sapiens)
Assay: human Rho kinase 2 inhibition – biochemical, Kinase-Glo luminescence, S6 peptide, 1536-well, dose response (AID 644)
observed property: IC50

>  <molecule>
Clc1ccccc1-c1nn2c(-c3ccncc3)nnc2s1

>  <IC50>
> 59.6 µM

$$$$
>  <molecule>
c1ccc(OCCCc2nc(-c3ccncc3)no2)cc1

>  <IC50>
> 59.6 µM

$$$$
>  <molecule>
CN(CCO)c1ncnc2nc[nH]c12

>  <IC50>
7.91 µM

$$$$
>  <molecule>
c1cn(CCCNc2ncnc3nc[nH]c23)cn1

>  <IC50>
6.18 µM

$$$$
>  <molecule>
c1nc(N2CCOCC2)c2nc[nH]c2n1

>  <IC50>
7.09 µM

$$$$
>  <molecule>
COc1ccc2cc3c(N)c(C(=O)NCc4ccco4)sc3nc2c1

>  <IC50>
> 19.9 µM

$$$$
>  <molecule>
CCCCc1c(C)nc(N)[nH]c1=O

>  <IC50>
> 59.6 µM

$$$$
>  <molecule>
CCc1cc2c(O)ncnc2s1

>  <IC50>
5.72 µM

$$$$

Task: GET /values?readout=IC50&system=Rho-associated protein kinase 2 (Homo sapiens)&item= CC(C)CCN1CC(C(=O)N2CCN(c3ccc(F)cc3)CC2)CC1=O (configuration not stated)
Result: > 59.6 µM

Task: Item: `C1=C(c2ccccc2)CCN(c2[nH]cnc3ncnc2-3)C1`
Result: > 19.9 µM

Task: Item: `O=c1ccc(=O)n2n1CC(O)C2`
Result: > 59.6 µM

Task: Item: `Cc1cc(=O)n(-c2ccccc2)[nH]1`
Result: > 59.6 µM

====

Biological target: Rho-associated protein kinase 2 (Homo sapiens)
Assay: human Rho kinase 2 inhibition – biochemical, Kinase-Glo luminescence, S6 peptide, 1536-well, dose response (AID 644)
observed property: IC50 (µM)

Answered cases to consult:
>  <molecule>
O=C(CSc1nnc(-c2ccncc2)[nH]1)c1ccccc1

>  <observed property>
IC50

>  <measured result>
0.765

$$$$
>  <molecule>
N#CC1C(=N)Oc2cc(O)ccc2C1c1ccncc1 (stereo not drawn)

>  <observed property>
IC50

>  <measured result>
127

$$$$
>  <molecule>
C[C@H]1CNCCN1S(=O)(=O)c1cccc2cnccc12

>  <observed property>
IC50

>  <measured result>
0.1

$$$$
>  <molecule>
Cc1c2ccncc2c(C)c2c1[nH]c1ccccc12 [5,11-dimethyl-2H-pyrido[4,3-b]carbazole]

>  <observed property>
IC50

>  <measured result>
6.68

$$$$
>  <molecule>
Cc1[nH]c2ccccc2c1C1=CCNCC1

>  <observed property>
IC50

>  <measured result>
9.63

$$$$
>  <molecule>
COc1cc(C=Nn2nnnc2N)ccc1OCc1ccc(F)cc1

>  <observed property>
IC50

>  <measured result>
17.5

$$$$

(A) c1ccc2c(-c3ccncc3)c[nH]c2c1
(B) COc1cc(N=CC2C(=O)Nc3ccccc32)cc(OC)c1OC (stereo not drawn)
Task: Response body: label of entry with the larger IC50; valid values A , B . Mark your answer with the label of the selected entry.
Result: B
(B: 10.5 µM, A: 0.8 µM)

====

Target: UniProt O75116
Experiment: human Rho kinase 2 inhibition – biochemical, Kinase-Glo luminescence, S6 peptide, 1536-well, dose response (AID 644)
Conditions: inactive by the depositor's call
pIC50: −log10 of the molar value.
observed property: pIC50

>  <item smiles>
COCCN(CCOC)S(=O)(=O)c1ccc(C(=O)Nc2nc(-c3ccncc3)cs2)cc1

>  <tested system>
UniProt O75116

>  <pIC50>
4.38

$$$$
>  <item smiles>
N#Cc1cccc(NC(=O)NCCc2c[nH]c3ccccc23)c1

>  <tested system>
UniProt O75116

>  <pIC50>
4.79

$$$$

(a) CN(C)c1ccc(-c2ccncc2)cc1
(b) Cc1cccc(Nc2ncnc3[nH]cnc23)c1
Task: Kindly identify the item with the lower pIC50 figure among these two: a and b Mark your answer with the label of the selected entry.
Result: a
(a: 4.50, b: 4.88)

====

Target: Rho-associated protein kinase 2 (Homo sapiens, UniProt O75116)
Sequence (O75116 whole entry): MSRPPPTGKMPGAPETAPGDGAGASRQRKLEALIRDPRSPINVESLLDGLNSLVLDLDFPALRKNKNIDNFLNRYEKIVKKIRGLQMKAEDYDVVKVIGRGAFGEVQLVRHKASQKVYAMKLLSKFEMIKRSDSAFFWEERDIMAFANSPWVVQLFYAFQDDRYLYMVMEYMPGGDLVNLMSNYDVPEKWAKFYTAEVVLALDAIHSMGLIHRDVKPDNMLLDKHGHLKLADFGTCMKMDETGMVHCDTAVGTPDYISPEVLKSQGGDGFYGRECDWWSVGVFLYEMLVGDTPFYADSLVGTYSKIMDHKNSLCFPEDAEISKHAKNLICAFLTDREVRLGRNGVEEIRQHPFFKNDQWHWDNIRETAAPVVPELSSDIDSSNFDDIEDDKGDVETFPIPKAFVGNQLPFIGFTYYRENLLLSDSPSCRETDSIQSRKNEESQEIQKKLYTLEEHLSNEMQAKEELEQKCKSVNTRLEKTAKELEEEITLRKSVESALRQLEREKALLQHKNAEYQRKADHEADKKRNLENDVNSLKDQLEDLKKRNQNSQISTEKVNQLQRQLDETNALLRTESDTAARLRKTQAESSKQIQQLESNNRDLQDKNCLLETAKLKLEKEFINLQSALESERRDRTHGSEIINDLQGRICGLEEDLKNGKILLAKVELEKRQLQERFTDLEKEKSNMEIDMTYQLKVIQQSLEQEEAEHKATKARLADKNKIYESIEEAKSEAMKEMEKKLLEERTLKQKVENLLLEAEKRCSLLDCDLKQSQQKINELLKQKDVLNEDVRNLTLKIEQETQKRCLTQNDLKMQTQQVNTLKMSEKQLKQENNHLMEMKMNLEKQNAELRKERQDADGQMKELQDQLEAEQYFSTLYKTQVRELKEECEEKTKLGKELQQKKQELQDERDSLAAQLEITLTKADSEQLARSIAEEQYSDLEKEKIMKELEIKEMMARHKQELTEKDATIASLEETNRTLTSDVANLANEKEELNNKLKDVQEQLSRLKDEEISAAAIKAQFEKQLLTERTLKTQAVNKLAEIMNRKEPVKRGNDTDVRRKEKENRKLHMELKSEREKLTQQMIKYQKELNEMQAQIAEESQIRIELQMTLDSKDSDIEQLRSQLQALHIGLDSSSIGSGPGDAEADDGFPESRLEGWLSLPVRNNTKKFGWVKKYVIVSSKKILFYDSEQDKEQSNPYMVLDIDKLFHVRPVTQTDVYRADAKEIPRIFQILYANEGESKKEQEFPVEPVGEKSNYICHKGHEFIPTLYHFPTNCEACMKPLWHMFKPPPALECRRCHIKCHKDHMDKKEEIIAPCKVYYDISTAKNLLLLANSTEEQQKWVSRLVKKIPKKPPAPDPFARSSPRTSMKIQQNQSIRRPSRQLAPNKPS
Experiment: human Rho kinase 2 inhibition – biochemical, Kinase-Glo luminescence, S6 peptide, 1536-well, dose response (AID 644)
Details: inactive by the depositor's call
observed property: IC50 (µM)

Answered cases to consult:
>  <molecule>
Cc1ccc(SCc2nc(-c3ccncc3)no2)cc1

>  <tested system>
Rho-associated protein kinase 2 (Homo sapiens, UniProt O75116)

>  <IC50 (µM)>
42.6

$$$$
>  <molecule>
CCN1CCN(Cc2nnnn2C(C)(C)C)CC1

>  <tested system>
Rho-associated protein kinase 2 (Homo sapiens, UniProt O75116)

>  <IC50 (µM)>
17.4

$$$$
>  <molecule>
c1coc(CNc2ncnc3[nH]cnc23)c1

>  <tested system>
Rho-associated protein kinase 2 (Homo sapiens, UniProt O75116)

>  <IC50 (µM)>
21.4

$$$$

(1) NC(=O)c1sc2nc(N3CCCCC3)c3c(c2c1N)CCCC3
(2) CC(=O)c1cc(C#N)c(SCc2ccncc2)nc1C
(3) NC(=O)c1c(-c2cccs2)csc1N
(4) CCOC1(OCC)N=C(N)C2(C#N)C(c3ccc(NC(C)=O)cc3)C12C#N (stereo not drawn)
(5) O=C(Oc1cccc2c(=O)[nH]ccc12)c1ccccc1 [(1-oxo-2H-isoquinolin-5-yl) benzoate]
Task: Ascending by IC50, please. List labels; respect the requested ordering.
Result: 2, 3, 5, 1, 4
(2: 12.3 µM, 3: 19.5 µM, 5: 55.7 µM, 1: 143 µM, 4: 445 µM)

====

Let's look at some molecules and their measured pIC50.
Target: Rho-associated protein kinase 2 (Homo sapiens)
Test: human Rho kinase 2 inhibition – biochemical, Kinase-Glo luminescence, S6 peptide, 1536-well, dose response (AID 644)
pIC50: −log10 of the molar value.

Answered cases to consult:
>  <molecule>
Cc1cc(C(=O)CN2C(=O)NC3(CCCCC3)C2=O)c(C)n1Cc1ccc2c(c1)OCO2

>  <observed property>
pIC50

>  <measured result>
< 4.22

$$$$
>  <molecule>
Cc1cc(Cl)ccc1OCc1nnc(-c2ccc(O)cc2)[nH]1

>  <observed property>
pIC50

>  <measured result>
< 4.70

$$$$
>  <molecule>
CCCCCC(=O)Nc1ccc2oc(-c3ccncc3)nc2c1

>  <observed property>
pIC50

>  <measured result>
< 4.70

$$$$
>  <molecule>
O=C(Nn1c(=S)[nH]c2ccccc2c1=O)c1ccncc1

>  <observed property>
pIC50

>  <measured result>
< 4.70

$$$$

Attention now turns to another entry.
Task: Fill blank: measured pIC50 of the molecule Cn1c(C(=O)N2CCCC(C(=O)N3CCN(C(=O)c4ccco4)CC3)C2)cc2sccc21 (stereo not given) is ____.
Result: < 4.22

====

Let's look at some compounds and their measured IC50.
Biological target: Rho-associated protein kinase 2 (Homo sapiens)
Assay: human Rho kinase 2 inhibition – biochemical, Kinase-Glo luminescence, S6 peptide, 1536-well, dose response (AID 644)

>  <item smiles>
Cc1cccc2cc(=O)[nH]c(C)c12

>  <tested system>
Rho-associated protein kinase 2 (Homo sapiens)

>  <IC50>
> 59.6 µM

$$$$

Task: Fill blank: measured IC50 of the compound `Cc1ccccc1NC(=O)Cn1c(C)nc2ccc(NC(=O)C3CC3)cc2c1=O` is ____.
Result: > 59.6 µM

Task: Item: `NC(=O)c1sc2nc3c(c(-c4ccco4)c2c1N)CCC3`
Result: > 59.6 µM

Task: Item: `O=C1NC(=O)c2cc(NC(=O)C3CCCCC3)ccc21`
Result: > 19.9 µM

Task: Item: `CCn1cc(C(=O)Nn2cnnc2)c(=O)c2ccc(C)nc21`
Result: > 59.6 µM
